- Test system: 565232-114-T-J1-PDC complex spheroid viability;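 also: spheroids exposed to compounds for 7 days before readout; 100% = DMSO vehicle wells with luminescence normalized to vehicle control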
- method_summary: Anticancer human tumor 565232-114-T-J1-PDC patient-derived bladder carcinoma cell line growth inhibition [CLK]
- recorded_conditions: second compound 3.16 µM; first compound 3.16 µM; active compounds read low
Cut-off 2% on viability, T/C: below means yes (1), at or above means no (0).

compound	group_label
CC(=O)O[C@H]1C(=O)[C@@]2(C)[C@H]([C@H](OC(=O)c3ccccc3)[C@]3(O)C[C@H](OC(=O)[C@H](O)[C@@H](NC(=O)c4ccccc4)c4ccccc4)C(C)=C1C3(C)C)[C@]1(OC(C)=O)CO[C@@H]1C[C@@H]2O + CNC(=O)c1ccc(Nc2nc(OC3CCCC3)c3c(-c4ccc5nc(C)oc5c4)c[nH]c3n2)c(OC)c1	no (0)
CC1(C)CCC(CN2CCN(c3ccc(C(=O)NS(=O)(=O)c4ccc(NCC5CCOCC5)c([N+](=O)[O-])c4)c(Oc4cnc5[nH]ccc5c4)c3)CC2)=C(c2ccc(Cl)cc2)C1 + CN1CCN(c2cc(C(=O)Nc3cc4cc(-c5cnn(C)c5)ccc4cn3)ccn2)CC1	yes (1)
CC1COCCN1c1cc(C2(S(C)(=N)=O)CC2)nc(-c2ccnc3[nH]ccc23)n1 (configuration not stated) + CN1CCN(c2cc(C(=O)Nc3cc4cc(-c5cnn(C)c5)ccc4cn3)ccn2)CC1	yes (1)
C#Cc1c(F)ccc2cc(O)cc(-c3ncc4c(N5CC6CCC(C5)N6)nc(OCC56CCCN5CC(F)C6)nc4c3F)c12 (configuration not stated) + CNC(=O)c1ccc(Nc2nc(OC3CCCC3)c3c(-c4ccc5nc(C)oc5c4)c[nH]c3n2)c(OC)c1	no (0)
CC1COCCN1c1cc(C2(S(C)(=N)=O)CC2)nc(-c2ccnc3[nH]ccc23)n1 (configuration not stated) + CNC(=O)c1ccc(Nc2nc(OC3CCCC3)c3c(-c4ccc5nc(C)oc5c4)c[nH]c3n2)c(OC)c1	no (0)
C#Cc1c(F)ccc2cc(O)cc(-c3ncc4c(N5CC6CCC(C5)N6)nc(OCC56CCCN5CC(F)C6)nc4c3F)c12 (configuration not stated) + CN1CCN(c2cc(C(=O)Nc3cc4cc(-c5cnn(C)c5)ccc4cn3)ccn2)CC1	no (0)

Let us examine a further case.
query: Would you kindly verify if viability, T/C of Nc1ccn(C2OC(CO)C(O)C2(F)F)c(=O)n1 (configuration not stated) + CN1CCN(c2cc(C(=O)Nc3cc4cc(-c5cnn(C)c5)ccc4cn3)ccn2)CC1 is strictly less than 2%?
result: yes (1)
